# Tested on: human pancreatic carcinoma cell line PL45
# experimentSummary: Cytotoxicity in cancer cell lines (CellTiter-Glo), PL45
# Format: cell-based
# conditionNotes: 72 hours, PL45 cells, mean of three tests, read-out: Cytotoxicity EC50 at 72 hours, PL45
propertyLabel: EC50 (nM)
Just the number please, in nM, no unit attached.

Asked: Need EC50 of O=S1(=O)C=CC(OS(=O)(=O)c2ccc(Oc3ccccc3)cc2)C1 (stereo not shown) [Compound 1] , thanks.
Given back: 200

---

# Test system: glioblastoma cell line U87
# experimentSummary: Cytotoxicity in cancer cell lines (CellTiter-Glo), U87
# Type: cell-based
# conditionNotes: Homo sapiens, U-87 MG; 48 hours; U87 cells; mean of three tests; read-out: Cytotoxicity EC50 at 48 hours, U87
propertyLabel: pEC50
Just so you know, pEC50 here is -log10 of the concentration in molar units; reply with that number alone.

Asked: Need pEC50 of O=S1(=O)C=CC(OS(=O)(=O)c2ccc(Oc3ccccc3)cc2)C1 (stereo not shown) [Compound 1] , thanks.
Given back: 5.89
